Cited source for all entries: patent US5616684A

- Tested on: ETB receptor (guinea pig kidney crude receptor membrane fraction)
- Test description: ETB Radio Receptor Assay *2
- Format: binding
- Measurement context: relative activity (Example 8 given as 100), 125I-endothelin-1, 37° C., 90 minutes
Non-standard residues stand in square brackets, D forms with d. Residues, ends and D or L forms follow the SMILES beside them. *: point of attachment. dPhg = N[C@@H](C(=O)O)c1ccccc1; X3 = O=C(Cc1c[nH]c2ccccc12)*; Orn = NCCC[C@H](N)C(=O)O
Property name: Binding Activity on ET Receptor (R. act.) ET8 *2
One number for each entry.

Observe how each entry below is paired with its result.
INSERT INTO results (compound, endpoint_result) VALUES
  ('CC(C)C[C@@H]1NC(=O)[C@@H](c2ccccc2)NC(=O)[C@H](CC(=O)O)NC(=O)[C@H](Cc2c[nH]c3ccccc23)NC(=O)[C@@H](CC(=O)O)NC(=O)[C@@H](Cc2c[nH]c3ccccc23)NC1=O [Example 45] (cyclo(D[dPhg]L[dW][dD]W))', 180),
  ('CC(C)C[C@@H]1NC(=O)[C@@H](Cc2ccccc2)NC(=O)[C@H](CC(=O)O)NC(=O)[C@H](Cc2c[nH]c3ccccc23)NC(=O)[C@@H](CC(=O)O)NC(=O)[C@@H](Cc2c[nH]c3ccccc23)NC1=O [Example 60] (cyclo(D[dF]L[dW][dD]W))', 44),
  ('CC(C)C[C@@H]1NC(=O)[C@@H](CC(C)C)NC(=O)[C@H](CC(=O)O)NC(=O)[C@H](CCCNC(=O)Cc2c[nH]c3ccccc23)NC(=O)[C@@H](CC(=O)O)NC(=O)[C@@H](Cc2c[nH]c3ccccc23)NC1=O [Example 82] (cyclo(D[dL]L[dW][dD][Orn](X3)))', 500),
  ('CC(C)C[C@@H]1NC(=O)[C@@H](CC(C)C)NC(=O)[C@H](CC(=O)O)NC(=O)[C@H](Cc2c[nH]c3ccccc23)NC(=O)[C@@H](CC(=O)O)NC(=O)[C@@H](Cc2cn(C)c3ccccc23)NC1=O', 330),
  ('CC(C)C[C@@H]1NC(=O)[C@@H](CC(C)C)NC(=O)[C@H](CC(=O)O)NC(=O)[C@H](Cc2c[nH]c3ccccc23)NC(=O)[C@@H](CC(=O)O)NC(=O)[C@@H](Cc2c[nH]c3ccccc23)NC1=O [Example 8, cyclo[-D-Asp-Trp-Asp-D-Leu-Leu-D-Trp-]] (cyclo(D[dL]L[dW][dD]W))', 100);

Give me Binding Activity on ET Receptor (R. act.) ET8 *2 for each of these compounds, listed below.
1. CC(C)C[C@@H]1NC(=O)[C@@H](CC(C)C)NC(=O)[C@H](CO)NC(=O)[C@H](Cc2c[nH]c3ccccc23)NC(=O)[C@@H](CC(=O)O)NC(=O)[C@@H](Cc2c[nH]c3ccccc23)NC1=O [Example 37] (cyclo(L[dW][dD]WS[dL]))
2. CC(C)C[C@H]1NC(=O)[C@H](CC(=O)O)NC(=O)[C@H](C)NC(=O)[C@@H](CC(=O)O)NC(=O)[C@@H](Cc2c[nH]c3ccccc23)NC(=O)[C@H](Cc2c[nH]c3ccccc23)NC1=O [Example 58] (cyclo(AD[dL]W[dW][dD]))

**Result**
1. 18
2. 22

**Query** Which measured Binding Activity on ET Receptor (R. act.) ET8 *2 value corresponds to CC(C)C[C@@H]1NC(=O)[C@@H](CC(C)C)NC(=O)[C@@H]2CCCN2C(=O)[C@H](CC(=O)O)NC(=O)[C@@H](CC(=O)O)NC(=O)[C@@H](Cc2c[nH]c3ccccc23)NC1=O [Example 30] (cyclo(DP[dL]L[dW][dD])) ?
**Result** 9.1

###

I'd be grateful if you could share measured Binding Activity on ET Receptor (R. act.) ET8 *1 for these entries.
- Assayed target: endothelin receptor B (ETB) (Bos taurus)
- Construct: A membrane fraction prepared from the bovine brain; from tissue; host or cells: bovine brain membrane fraction
- Sequence (P28088 27-441): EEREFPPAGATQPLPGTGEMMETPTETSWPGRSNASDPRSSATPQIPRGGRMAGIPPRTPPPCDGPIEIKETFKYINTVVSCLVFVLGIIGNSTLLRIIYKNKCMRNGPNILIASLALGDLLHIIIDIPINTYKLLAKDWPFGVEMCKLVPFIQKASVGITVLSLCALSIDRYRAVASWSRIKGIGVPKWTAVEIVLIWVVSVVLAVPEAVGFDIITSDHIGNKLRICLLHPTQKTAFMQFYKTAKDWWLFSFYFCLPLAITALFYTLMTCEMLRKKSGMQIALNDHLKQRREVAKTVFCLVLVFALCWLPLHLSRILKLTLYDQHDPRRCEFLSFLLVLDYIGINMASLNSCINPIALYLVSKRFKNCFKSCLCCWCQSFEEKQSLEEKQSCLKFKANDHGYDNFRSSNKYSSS
- Test description: Assay of Affinity for Receptor (2): Binding Activity on ETB Receptor *1
- Set-up: key: relative specific activity, Example 8 compound = 100
- Measurement context: specific activity, binding activity of the compound of Example 8 taken as 100; bovine brain membrane fraction, 125I labeled endothelin-1, 25° C., 1 hour
Non-standard residues stand in square brackets, D forms with d. Residues, ends and D or L forms follow the SMILES beside them. *: point of attachment. 1Nal = N[C@@H](Cc1cccc2ccccc12)C(=O)O; Bn = c1ccc(C*)cc1
Numbers only.

Observe how each entry below is paired with its result.
INSERT INTO assay_data (molecule, endpoint_result) VALUES
  ('CC(C)C[C@@H]1NC(=O)[C@@H](CC(C)C)NC(=O)[C@H](COCc2ccccc2)NC(=O)[C@H](Cc2c[nH]c3ccccc23)NC(=O)[C@@H](CC(=O)O)NC(=O)[C@@H](Cc2c[nH]c3ccccc23)NC1=O [Example 38] (cyclo(L[dW][dD]WS(Bn)[dL]))', 66),
  ('CC(C)C[C@@H]1NC(=O)[C@@H](CC(C)C)NC(=O)[C@H](CO)NC(=O)[C@H](Cc2c[nH]c3ccccc23)NC(=O)[C@@H](CC(=O)O)NC(=O)[C@@H](Cc2c[nH]c3ccccc23)NC1=O [Example 37] (cyclo(L[dW][dD]WS[dL]))', 22),
  ('CC(C)C[C@@H]1NC(=O)[C@@H](CC(C)C)NC(=O)[C@H](CC(=O)O)NC(=O)[C@H](Cc2cccc3ccccc23)NC(=O)[C@@H](CC(=O)O)NC(=O)[C@@H](Cc2c[nH]c3ccccc23)NC1=O [Example 23] (cyclo([1Nal]D[dL]L[dW][dD]))', 11);

Note: attention shifts to another entry.
**Query** Which measured Binding Activity on ET Receptor (R. act.) ET8 *1 value corresponds to CC(C)C[C@@H]1NC(=O)[C@@H](CC(C)C)NC(=O)[C@H](CC(=O)O)NC(=O)[C@H](CC(=O)O)NC(=O)[C@@H](CC(=O)O)NC(=O)[C@@H](Cc2c[nH]c3ccccc23)NC1=O [Example 16] (cyclo(DD[dL]L[dW][dD])) ?
**Result** 14

###

- System: ETB receptor (guinea pig kidney crude receptor membrane fraction)
- Test description: ETB Radio Receptor Assay *2
- Assay type: binding
- Measurement context: relative activity (Example 8 given as 100), 125I-endothelin-1, 37° C., 90 minutes
Non-standard residues stand in square brackets, D forms with d. Residues, ends and D or L forms follow the SMILES beside them.
I'd be grateful if you could share measured Binding Activity on ET Receptor (R. act.) ET8 *2 for these entries.
Answers are plain numbers.

Observe how each entry below is paired with its result.
INSERT INTO results (compound, endpoint_result) VALUES
  ('CC(C)C[C@@H]1NC(=O)[C@@H](C(C)C)NC(=O)[C@H](CC(=O)O)NC(=O)[C@H](Cc2c[nH]c3ccccc23)NC(=O)[C@@H](CC(=O)O)NC(=O)[C@@H](Cc2c[nH]c3ccccc23)NC1=O [Example 52] (cyclo(D[dV]L[dW][dD]W))', 100),
  ('CC(C)C[C@@H]1NC(=O)[C@@H](CC(C)C)NC(=O)[C@H](CC(=O)O)NC(=O)[C@H](Cc2ccccc2)NC(=O)[C@@H](CC(=O)O)NC(=O)[C@@H](Cc2c[nH]c3ccccc23)NC1=O [Example 19] (cyclo(D[dL]L[dW][dD]F))', 7.1),
  ('CC(C)C[C@@H]1NC(=O)[C@@H](CC(C)C)NC(=O)[C@H](CC(=O)O)NC(=O)[C@@H]2CCCN2C(=O)[C@@H](CC(=O)O)NC(=O)[C@@H](Cc2c[nH]c3ccccc23)NC1=O [Example 9, cyclo[-D-Asp-Pro-Asp-D-Leu-Leu-D-Trp-]] (cyclo(D[dL]L[dW][dD]P))', 67);

Note: attention shifts to another entry.
**Query** Which measured Binding Activity on ET Receptor (R. act.) ET8 *2 value corresponds to CC(C)C[C@@H]1NC(=O)[C@H](CC(=O)O)NC(=O)[C@@H](CC(=O)O)NC(=O)[C@@H](Cc2c[nH]c3ccccc23)NC(=O)[C@H](CC(C)C)NC(=O)[C@@H](CC(C)C)NC1=O [Example 32] (cyclo(DL[dL]L[dW][dD])) ?
**Result** 7.7

###

I'd be grateful if you could share measured Binding Activity on ET Receptor (R. act.) ETA for these entries.
- Assayed target: endothelin receptor A (ETA) (Sus scrofa, UniProt Q29010)
- Construct: A membrane fraction prepared from the porcine heart; from tissue; host or cells: porcine heart membrane fraction
- Sequence (Q29010 21-427): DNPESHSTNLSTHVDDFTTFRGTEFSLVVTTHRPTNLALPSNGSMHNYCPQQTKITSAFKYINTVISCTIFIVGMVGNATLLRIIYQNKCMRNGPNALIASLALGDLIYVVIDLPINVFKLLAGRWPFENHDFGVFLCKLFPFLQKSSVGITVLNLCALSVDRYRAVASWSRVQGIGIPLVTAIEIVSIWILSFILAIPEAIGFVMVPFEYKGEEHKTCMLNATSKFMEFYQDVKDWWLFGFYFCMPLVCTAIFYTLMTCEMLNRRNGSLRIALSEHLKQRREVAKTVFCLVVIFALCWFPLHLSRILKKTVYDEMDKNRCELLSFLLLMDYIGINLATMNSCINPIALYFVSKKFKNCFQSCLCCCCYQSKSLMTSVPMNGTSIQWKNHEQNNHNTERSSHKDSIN
- Test description: Assay of Affinity for Receptor (1): Binding Activity on ETA Receptor
- Design: key: relative binding activity; reference cyclic pentapeptide = 1.0
- Measurement context: specific activity, binding activity of cyclo[-D-Glu-Ala-D-aIle-Leu-D-Trp-] taken as 1.0; porcine heart membrane fraction, 125I-labeled endothelin-1, 25° C., 1 hour
Non-standard residues stand in square brackets, D forms with d. Residues, ends and D or L forms follow the SMILES beside them. *: point of attachment. dTle = CC(C)(C)[C@@H](N)C(=O)O; NMeL = CN[C@@H](CC(C)C)C(=O)O; Bn = c1ccc(C*)cc1

Observe how each entry below is paired with its result.
INSERT INTO assay_data (molecule, endpoint_result) VALUES
  ('CC(C)C[C@@H]1NC(=O)[C@@H](CC(C)C)NC(=O)[C@H](CC(=O)O)NC(=O)[C@H](CC(C)C)N(C)C(=O)[C@@H](CC(=O)O)NC(=O)[C@@H](Cc2c[nH]c3ccccc23)NC1=O [Example 47] (cyclo(D[dL]L[dW][dD][NMeL]))', 6.8),
  ('CC(C)C[C@@H]1NC(=O)[C@@H](C(C)(C)C)NC(=O)[C@H](CC(=O)O)NC(=O)[C@H](Cc2c[nH]c3ccccc23)NC(=O)[C@@H](CC(=O)O)NC(=O)[C@@H](Cc2c[nH]c3ccccc23)NC1=O [Example 53, cyclo[-D-Asp-Trp-Asp-D-tLeu-Leu-D-Trp-]] (cyclo(D[dTle]L[dW][dD]W))', 64),
  ('CC(C)C[C@@H]1NC(=O)[C@@H](CC(C)C)NC(=O)[C@H](CC(=O)O)NC(=O)[C@H](Cc2ccccc2)NC(=O)[C@@H](CC(=O)O)NC(=O)[C@@H](Cc2c[nH]c3ccccc23)NC1=O [Example 19] (cyclo(D[dL]L[dW][dD]F))', 8.3);

Note: attention shifts to another entry.
**Query** Which measured Binding Activity on ET Receptor (R. act.) ETA value corresponds to CC(C)C[C@@H]1NC(=O)[C@@H](CC(C)C)NC(=O)[C@H](COCc2ccccc2)NC(=O)[C@H](Cc2c[nH]c3ccccc23)NC(=O)[C@@H](CC(=O)O)NC(=O)[C@@H](Cc2c[nH]c3ccccc23)NC1=O [Example 38] (cyclo(L[dW][dD]WS(Bn)[dL])) ?
**Result** 13
